Value source: ChEMBL document CHEMBL1121998

- protocol.text: Compound was tested for its lethality in mice when administered perorally
- Assay type: ADME, organism-based
- experimental.parameters: mouse, in vivo, po
Listed next: entries and their corresponding LD50.
quantity: LD50 (µmol/kg)

INSERT INTO assay_data (compound, observed_result) VALUES
  ('CCOC(=O)C1(CCCCCCCc2ccc(Cl)cc2)CO1 (centres undefined)', 950),
  ('CCOC(=O)C1(CCCc2ccc(F)cc2)CO1 (centres undefined)', 3960),
  ('O=C([O-])C1(CCCCCc2ccc(Cl)cc2)CO1.[Na+] (centres undefined)', 1640),
  ('CCOC(=O)C1(CCCc2ccc(Cl)cc2)CO1 (centres undefined)', 2720),
  ('CCOC(=O)C1(CCCc2ccc(Cl)c(Cl)c2)CO1 (centres undefined)', 2870),
  ('CCOC(=O)C1(CCCCCc2ccccc2)CO1 (centres undefined)', 880),
  ('CCOC(=O)C1(CCCc2cccc(C(F)(F)F)c2)CO1 (centres undefined)', 860),
  ('O=C([O-])C1(CCCCCc2ccccc2)CO1.[Na+] (centres undefined)', 1060),
  ('CCOC(=O)C1(CCCCCc2ccc(Cl)cc2)CO1 (centres undefined)', 930);
